Origin of values: patent US6156700A

Test system: ECHORC Watergrass (Calif.)
Assay: Postemergence weed control, flooded paddy (Table IV)
Format: in vivo, Echinochloa oryzoides
Parameters: scale not given here
Conditions: 0.1250 kg/ha
Measure: herbicidal effect rating

• CCOc1cccc(-c2nsc3ccc(-n4c(=O)cc(C(F)(F)F)n(C)c4=O)cc23)c1 [Compound 327] = 9.0
• Cc1ccc(OCC(=O)OCC2(c3ccccc3)CC2)c(-c2nsc3ccc(-n4c(=O)cc(C(F)(F)F)n(C)c4=O)cc23)c1 [Compound 517] = 0.0
• Cc1cc(O)c(-c2nsc3ccc(-n4c(=O)cc(C(F)(F)F)n(C)c4=O)cc23)cc1C [Compound 11] = 2.0
• COC(=O)COc1ccc(C)cc1-c1noc2ccc(-n3c(=O)cc(C(F)(F)F)n(C)c3=O)c(Cl)c12 [Compound 261] = 0.0
